Test system: E. coli clinical isolates
experimentDescription: MIC on panel of E. coli clinical isolates
Assay type: cell-based
assayContext: strain SEC044
Property: MIC; scope: individual compounds
measuredMetric: MIC

>>> df
                                   compound  reportedvalue
0  O=C(Nc1nc(-c2ccc(F)cc2)cs1)c1ccc([N+](=O)[O-])s1 [compound 15]        8 µg/mL
1  O=C(Nc1nc(-c2ccc(F)cc2F)cs1)c1ccc([N+](=O)[O-])s1 [compound 12]       32 µg/mL
2  O=C1CN(/N=C/c2ccc([N+](=O)[O-])o2)C(=O)N1 [nitrofurantoin, reference compound]       80 µg/mL
3  COc1cc(-c2csc(NC(=O)c3ccc([N+](=O)[O-])s3)n2)ccc1Cl [compound 20]        8 µg/mL
4  CNC(C)C1CCC(N)C(OC2C(N)CC(N)C(OC3OCC(C)(O)C(NC)C3O)C2O)O1 (stereo not drawn) [gentamicin, reference compound]     > 64 µg/mL
5  C[C@@H](O)[C@H]1C(=O)N2C(C(=O)O)=C(S[C@@H]3CN[C@H](C(=O)N(C)C)C3)[C@H](C)[C@H]12 [meropenem, reference compound]     0.13 µg/mL
